# Test system: U2OS
# protocol notes: Multiplex assay against U2OS
# Type: toxicity, cell-based
# test settings: human, 24 h, 1 µM, compound concentration 1 uM, replicate 2
property measured: Population Hoechst High Intensity Objects (%)

{"compound": "CN1C[C@H](C(=O)N[C@]2(C)O[C@@]3(O)[C@@H]4CCCN4C(=O)[C@H](Cc4ccccc4)N3C2=O)C[C@@H]2c3cccc4[nH]cc(c34)C[C@H]21.CS(=O)(=O)O [DIHYDROERGOTAMINE MESYLATE]", "study target": "U2OS", "assay value": 1}
{"compound": "O=C(Nc1cc(-c2ccccc2)nn1-c1ccccc1F)c1ccc([N+](=O)[O-])cc1", "study target": "U2OS", "assay value": 1}
{"compound": "N[C@](CC1c2ccccc2Oc2ccccc21)(C(=O)O)[C@H]1C[C@@H]1C(=O)O", "study target": "U2OS", "assay value": 0}
{"compound": "COc1cc2nc(N3CCN(C(=O)COc4c(OC)cccc4C(C)C)CC3)nc(N)c2cc1OC.Cl.Cl", "study target": "U2OS", "assay value": 0}
{"compound": "CCCCC[C@H](O)/C=C/[C@H]1[C@H](O)CC(=O)[C@@H]1CCCCCCC(=O)O [ALPROSTADIL]", "study target": "U2OS", "assay value": 0}
{"compound": "CN1CCN2c3ccccc3Cc3ccccc3C2C1.Cl (configuration not stated) [MIANSERIN HYDROCHLORIDE]", "study target": "U2OS", "assay value": 2}
{"compound": "COc1cc(C(=O)N2CC[C@@H](O)[C@@H](N)C2)cc2nc(-c3cc4ccccc4n3CC3CC3)n(C)c12.Cl", "study target": "U2OS", "assay value": 2}
